- Tested on: Hepatitis C virus
- TEST DETAILS: Antiviral activity against HCV by genotype 1 replicon based cellular assay
- Type: functional, Hepacivirus hominis

COMPOUND: CC1(NC(=O)N[C@H]2CCCCCCCCCC[C@@H](C(=O)C(N)=O)NC(=O)[C@@H]3C4C(CN3C2=O)C4(C)C)CCCCC1 (single isomer, unassigned)
EC90: 0.4 µM
--
COMPOUND: CC(C)(C)NC(=O)N[C@H]1CCCCCCCCCC[C@@H](C(=O)C(N)=O)NC(=O)[C@H]2[C@H]3[C@@H](CN2C1=O)C3(C)C
EC90: 1 µM
--
COMPOUND: CC(C)(C)NC(=O)N[C@H](C(=O)N1CC2C([C@H]1C(=O)NC(CC1CCC1)C(=O)C(N)=O)C2(C)C)C(C)(C)C (single isomer, unassigned) [BOCEPREVIR]
EC90: 0.35 µM
--
COMPOUND: CN(C)C(=O)[C@@H](NC(=O)CNC(=O)C(=O)[C@@H]1CCCC/C=C/CCCC[C@H](NC(=O)OC(C)(C)C)C(=O)N2CC3C([C@H]2C(=O)N1)C3(C)C)c1ccccc1 (single isomer, unassigned)
EC90: 0.3 µM
--
COMPOUND: C=CCNC(=O)C(=O)[C@@H]1CCCCCCCCC[C@H](NC(=O)N[C@H](CN(C)S(=O)(=O)c2ccccn2)C(C)(C)C)C(=O)N2CC3C([C@H]2C(=O)N1)C3(C)C (single isomer, unassigned)
EC90: 0.09 µM
--
COMPOUND: CN(C)C(=O)[C@@H](NC(=O)CNC(=O)C(=O)[C@@H]1CCCCCCCCCC[C@H](NC(=O)NC(C)(C)C)C(=O)N2C[C@@H]3[C@H]([C@H]2C(=O)N1)C3(C)C)c1ccccc1
EC90: 1 µM
--
COMPOUND: CC(C)(C)OC(=O)N[C@H]1CCCCCCCCCC[C@@H](C(=O)C(=O)NCC(=O)NCc2ccccc2)NC(=O)[C@@H]2[C@H]3[C@@H](CN2C1=O)C3(C)C
EC90: 2 µM
--
COMPOUND: CN(C[C@@H](NC(=O)N[C@H]1CCCCCCCCC[C@@H](C(=O)C(N)=O)NC(=O)[C@@H]2C3C(CN2C1=O)C3(C)C)C(C)(C)C)S(C)(=O)=O (single isomer, unassigned)
EC90: 0.25 µM
--
COMPOUND: C=CCNC(=O)C(=O)[C@@H]1CCCCCCCCC[C@H](NC(=O)N[C@H](CN2C(=O)C3CCC(C3)C2=O)C(C)(C)C)C(=O)N2CC3C([C@H]2C(=O)N1)C3(C)C (single isomer, unassigned)
EC90: 0.015 µM

----------
Readings of AUC(0-t) at 6 h for the listed molecules
- TEST DETAILS: AUC (0 to 6 hrs) in rat at 10 mg/kg, po
- Format: ADME, organism-based, Plasma
- Set-up: time < 6 hr, dose 10 mg/kg, route oral
- TEST SETTINGS: plasma

MOLECULE: CN(C[C@@H](NC(=O)N[C@H]1CCCCCCCCC[C@@H](C(=O)C(=O)NCC2CC2)NC(=O)[C@@H]2C3C(CN2C1=O)C3(C)C)C(C)(C)C)S(=O)(=O)c1cccs1 (single isomer, unassigned)
AUC(0-t) at 6 h / µM·h: 0.4

MOLECULE: C=CCNC(=O)C(=O)[C@@H]1CCCCCCCCC[C@H](NC(=O)N[C@H](CN(C)S(=O)(=O)c2cccs2)C(C)(C)C)C(=O)N2CC3C([C@H]2C(=O)N1)C3(C)C (single isomer, unassigned)
AUC(0-t) at 6 h / µM·h: 1.26

MOLECULE: C=CCNC(=O)C(=O)[C@@H]1CCCCCCCCC[C@H](NC(=O)N[C@H](CN(C)S(C)(=O)=O)C(C)(C)C)C(=O)N2C[C@@H]3[C@H]([C@H]2C(=O)N1)C3(C)C
AUC(0-t) at 6 h / µM·h: 0.36

MOLECULE: C=CCNC(=O)C(=O)[C@@H]1CCCCCCCCC[C@H](NC(=O)N[C@H](CN2C(=O)CC(C)(C)CC2=O)C(C)(C)C)C(=O)N2CC3C([C@H]2C(=O)N1)C3(C)C (single isomer, unassigned)
AUC(0-t) at 6 h / µM·h: 1.1

MOLECULE: C=CCNC(=O)C(=O)[C@@H]1CCCCCCCCC[C@H](NC(=O)N[C@H](CN2C(=O)C3CCC(C3)C2=O)C(C)(C)C)C(=O)N2CC3C([C@H]2C(=O)N1)C3(C)C (single isomer, unassigned)
AUC(0-t) at 6 h / µM·h: 0.31

Where these numbers come from: ChEMBL document CHEMBL1139369
